Tested on: 69AR
Assay: Cell Proliferation Assay (CellTiter-Glo), 69AR
Type: cell-based
Conditions: 72 hr
REPORTED PROPERTY: IC50

Give IC50 for the following compound: CN(C)CCn1cc(-c2ccc(F)c(C(F)(F)F)c2)nc1C1CCN(c2ncnc3c2CC(=O)N3)CC1 [Example 45]
9.4 µM

====

Biological target: p70 S6 Kinase (Homo sapiens, UniProt P23443, T412E)
Construct: amino acids 1-421, T412E; His tag (N)
Sequence (P23443 1-421 T412E): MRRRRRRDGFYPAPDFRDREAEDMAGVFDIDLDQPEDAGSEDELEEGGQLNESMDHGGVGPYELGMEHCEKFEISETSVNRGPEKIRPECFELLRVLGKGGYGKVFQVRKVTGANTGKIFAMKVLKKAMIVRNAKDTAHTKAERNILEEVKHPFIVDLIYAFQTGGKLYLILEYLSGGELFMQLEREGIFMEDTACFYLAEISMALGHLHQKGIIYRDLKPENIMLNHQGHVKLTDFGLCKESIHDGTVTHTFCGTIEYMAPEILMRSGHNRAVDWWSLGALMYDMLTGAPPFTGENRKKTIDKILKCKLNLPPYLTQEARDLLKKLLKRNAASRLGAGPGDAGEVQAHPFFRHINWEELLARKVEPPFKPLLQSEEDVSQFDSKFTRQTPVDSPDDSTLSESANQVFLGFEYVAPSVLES
Test: p70 S6 Kinase In Vitro Enzyme Assay (Transcreener Kinase ADP-FP)
Conditions: 25 micromolar ATP; read-out: IC50 against p70 S6 Kinase
REPORTED PROPERTY: IC50

Please look at this compound and report its IC50: CN(C)CCn1cc(-c2ccc(F)c(C(F)(F)F)c2)nc1C1CCN(c2ncnc3c2C(C)(C)C(=O)N3)CC1 [Example 31]
7 nM

====

Target: human HERG K+ channel (Homo sapiens)
Assay: HERG Assay, [3H]astemizole radioligand binding
Settings: transfected HEK-293 cell membranes, 2 nM [3H]astemizole
REPORTED PROPERTY: pIC50
Formally, pIC50 is defined as -log10 of the concentration c, with c in mol/L.

Let me know recorded pIC50 for `O=C1Cc2c(ncnc2N2CCC(c3nc(-c4ccc(F)c(F)c4)cn3CCN3CCCC3)CC2)N1` , thanks.
4.86

====

Tested on: BT474
Assay: Cell Proliferation Assay (CellTiter-Glo), BT474
Type: cell-based
Conditions: Homo sapiens, BT-474; BT474, 72 hr
REPORTED PROPERTY: pIC50
Keep it numeric: pIC50 is minus log10 of the concentration in mol/L.

Answer with the recorded pIC50 for the compound listed here: `CN(C)CCn1cc(-c2ccc(F)c(C(F)(F)F)c2)nc1C1CCN(c2ncnc3c2CC(=O)N3)CC1`
5.10
